System: MDA-N
Experiment: NCI tumour cell line growth inhibition, 48 h
Measurement Type: TGI

[ask] Which TGI reading was recorded for the molecule O=C1CCCCC1CN1CCCCC1 (stereo unspecified) ?
[reply] > 100 µM

[ask] Which TGI reading was recorded for the molecule NC(N)=Nc1ccc(CC(N)NCC(=O)O)cc1 (stereo unspecified) ?
[reply] > 25 µM

[ask] Which TGI reading was recorded for the molecule O=C(/C=C/c1ccccc1)C[C@@H](O)C[C@@H]1CC=CC(=O)O1 ?
[reply] 14.3 µM

[ask] Which TGI reading was recorded for the molecule CC(=O)N(C(=O)CC(=O)N1N=C(c2ccccc2)C(N=Nc2ccccc2[N+](=O)[O-])C1=O)c1ccc(Cl)cc1 (stereo unspecified) ?
[reply] > 10 µM

[ask] Which TGI reading was recorded for the molecule Cc1ccccc1C(=N)c1ccccc1Cc1cccc2ccccc12 ?
[reply] 65.7 µM

[ask] Which TGI reading was recorded for the molecule Oc1ccc(-c2nc3ccc(Br)cc3s2)cc1 ?
[reply] > 100 µM

[ask] Which TGI reading was recorded for the molecule O=c1[nH]c(=S)[nH]c2c1C(c1ccc([N+](=O)[O-])cc1)c1c([nH]c(=S)[nH]c1=O)O2 ?
[reply] > 100 µM

[ask] Which TGI reading was recorded for the molecule CCOC(=S)SCC(=O)O ?
[reply] > 100 µM

[ask] Which TGI reading was recorded for the molecule O=C(/C=C/c1ccc2c(c1)OCO2)c1ccc(O)cc1 ?
[reply] 22.9 µM

[ask] Which TGI reading was recorded for the molecule O=[N+]([O-])c1ccc2[nH]nc(OCc3ccccc3Cl)c2c1 ?
[reply] > 100 µM

[ask] Which TGI reading was recorded for the molecule COc1cccc(C2SC(N)=Nc3c2c(C)nn3C(=O)c2ccccc2O)c1 (stereo unspecified) ?
[reply] > 10 µM
